Item-by-item account of MIC
Tested on: Bacillus cereus var. mycoides ATCC 9463
Assay explanation: microbe, parasite or virus in culture
Type: cell-based
Experimental conditions: ATCC9463, pH 8, read-out: Minimum Inhibitory Concentration (M.I.C.)
Enter your answer as a number in µg/mL; do not include the unit.

Answered cases to consult:
NC1CC(N)C(OC2OC(CO)C(O)C(O)C2N)C(O)C1OC1OCC(O)C(O)C1N (stereo not shown) [XK-88-1] : 3.3
NCC1CC(O)C(N)C(OC2C(N)CC(N)C(O)C2O)O1 (stereo not shown) [XK-88-2] : 0.7
NCC1OC(OC2C(N)CC(N)C(OC3OCC(O)C(O)C3N)C2O)C(N)C(O)C1O (stereo not shown) [XK-88-3] : 2.7

Turning now to a further compound:
Exercise: Look at this compound and give its reported MIC. COC1COC(OC2C(N)CC(N)C(OC3OC(CN)CC(O)C3N)C2O)C(N)C1N (stereo not shown) [XK-88-5]
Key: 0.66

Measured values drawn from patent US3939043A for this set.
